Assay: PET hydrolysis, aromatic products released after 48 h (umol product/mg enzyme); higher = more PET depolymerization activity
Conditions: substrate: cryPow; 60 °C; pH 5.5
measurement-label: PET hydrolysis

Challenge: // query PET hydrolysis value for entry AGFERGPDPSTSTLDAARGPFAVAEERVYSWRASGFGGGDIYYPTTTSEGTFGVVAVAPGYTAGRSSMAWLASRIASHGFVVINIDTLTRSDQPASRGRQLLAALDHVTSSSGVRDRVDASRQAVVGHSMGGGGALEAASSRPALQAAVPLTPWNLTKRWSSLQVPTFIVGAENDSVASVRTHAEPFYESLPAALPKAYLELNNASHFAPNTTNSTIGRYTVAWLKRYVDDDLRYSQFLCPPPPPSSAIEEFRATC [DP087]
Response given: < 3

Challenge: Same question, ADNPHQRGPNPTQASITANRGTFATAETSVGGGNGFGAAKIYYPTDTSQGTFGAIAVVPGYTATWAAEGAWMGHWLASFGFVVIGIDTLNRNDFDVARGTQLLAALDYLTQRSSVRTRVDPNRLAVMGHSMGGGGTISAALRWPTLKAAIGLAPYSPSQTTSGLQVPTMLLAGQNDGTSTPASIISLYNNIPASTEKSYLELAGAGHGFPTSNNSVMTRKVIPWMKIFIDQDARYTQFLCPLQDWTGIRSYRSSCPLLPGATFSLAGSASGKCVDVPGRVQTNGTGLIIWTCNGAVNQQWTRTAAGELRIYDNAKCMDANASGPGTRVTINSCNGGNSQKWTVNANGTVTNAASGRCIDTGGTADNAPVVVNTCTGGTSQT [ESM163] this time
Response given: < 3

----------
Assay: PET hydrolysis, aromatic products released after 48 h (umol product/mg enzyme); higher = more PET depolymerization activity
Conditions: substrate: aFilm; 60 °C; pH 5.5
Readings of PET hydrolysis for the listed sequences

Reference set, count: 2
INSERT INTO assay_data (seq_string, measured) VALUES
  ('ANPYERGPDPTLASVEATSGTFAYASLSVSSGNGFGGGTIYYPTSTTDGTFAGIVTCPGFTNSGSSMAWFGKVLASQGFVTLVMNPKSNLDFPDARATQMLAALDWLTNSSSVKTRIDATRLGVLGQSMGGGATLKASKTRPSLKASFATAPYNSDKDWSTNTVPQFLFGMQNDTTAAVTNHALKFYNSLPATTPKIYAELRGAGHSTATSPNTSIRRYAVSFMKRNLDNDTRYSQFLCPGPTITSSSPLSAFMSNCLF [DP080]', '< 3'),
  ('ANPYERGPNPTQALLEARSGPFSVSSERAWRLGSDGFGGGTIYYPRENNTYGAVAISPGYTGTQASVAWLGERIASHGFVVITIDTNTTLDQPDSRADQLEAALDHMVDGASSTVRSRIDRNRLAVMGHSMGGGGTLRLASQRPDLKAAIPLTPWHLNKSWSNVQVPTLIIGADLDTIAPVLTHAEPFYNSIPTSTRKAYLELDGATHFAPNITNSTIGMYSVAWLKRFVDEDTRYTQFLCPGPRTGLFSDVEEYRSTCPF [TEP014]', '< 3');

Proceed to the following item.
Challenge: Given the sequence AVHGPDPTDALLEASRGPYATAQIDVSALAVSGFGGGTIYYPTTTSEGTFGGVAIAPGYTADKSSLAWLAARLASHGFVVFNIDTLTRLDQPDSRGRQLLAALDYLTQRSSVRSRVDASRLGVMGHSMGGGGTLEAAVSRPSLRAAVPLTPWNLDKTWPEVRTPTLIIGADLDTIAPVLTHAEPFYASLPSTLDKAYLELNNATHFAPNITDTTIGKYAVAWMKRFIDDDTRYNRFLCPGPSWSLSVEEYRSTCPF [TEP061] , what is its reported PET hydrolysis?
Response given: < 3
